# reported IC50; entries follow
assay-system: hTRPV3 (Homo sapiens (Human))
Sequence (Q8NET8 whole entry): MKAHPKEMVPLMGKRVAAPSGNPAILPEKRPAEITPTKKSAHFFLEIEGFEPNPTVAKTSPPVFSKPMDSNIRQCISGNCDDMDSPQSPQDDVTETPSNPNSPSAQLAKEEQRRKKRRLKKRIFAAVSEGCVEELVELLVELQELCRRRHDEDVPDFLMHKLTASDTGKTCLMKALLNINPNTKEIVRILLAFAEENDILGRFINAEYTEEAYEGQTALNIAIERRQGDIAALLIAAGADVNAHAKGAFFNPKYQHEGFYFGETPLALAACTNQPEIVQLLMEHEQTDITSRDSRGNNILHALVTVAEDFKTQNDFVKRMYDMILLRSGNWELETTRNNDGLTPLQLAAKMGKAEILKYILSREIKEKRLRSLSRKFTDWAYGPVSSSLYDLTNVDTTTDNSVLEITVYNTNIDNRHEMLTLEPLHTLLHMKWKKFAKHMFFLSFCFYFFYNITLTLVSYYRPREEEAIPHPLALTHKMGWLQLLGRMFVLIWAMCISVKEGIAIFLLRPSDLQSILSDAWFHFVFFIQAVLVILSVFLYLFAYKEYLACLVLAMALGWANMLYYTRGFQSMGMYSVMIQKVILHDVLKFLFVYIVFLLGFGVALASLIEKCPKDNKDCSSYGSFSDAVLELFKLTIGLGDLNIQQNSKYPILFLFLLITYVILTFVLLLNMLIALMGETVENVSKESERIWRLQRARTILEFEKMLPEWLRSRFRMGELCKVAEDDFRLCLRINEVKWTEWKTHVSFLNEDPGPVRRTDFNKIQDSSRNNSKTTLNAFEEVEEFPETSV
experiment-description: Whole-cell patch clamp, hTRPV3 Phase 1 / Phase 2 currents
Assay type: cell-based
condition-description: Phase 1 current; read-out: hTRPV3 (nM) (Phase 1)
The reply should contain only the number, in nM.

Known results for compounds:
Cc1ccccc1-c1ccc(N2CC[C@H](Oc3ccc(C(F)(F)F)cn3)C2)c(CO)c1 [Compound 1-128] ... 114
Cc1cccnc1O[C@H]1CCN(c2ccc(-c3ccccc3Cl)cc2CCO)C1 [Compound 1-194] ... 327
NC(=O)c1cc(C(O)c2ccccc2)ccc1N1CC[C@H](Oc2ccc(C(F)(F)F)cn2)C1 (stereo partly drawn) [Compound 1-146] ... 686
CCc1ccccc1Oc1ccc(N2CC[C@H](Oc3ncccc3Cl)C2)c(CCO)c1 [Compound 1-236] ... 8.27

Exercise: Name the recorded IC50 for OCc1cc(Oc2ccc(Cl)cc2)ccc1N1CC[C@H](Oc2ccccn2)C1 [Compound 1-283] .
Key: 283

Exercise: Name the recorded IC50 for CCc1ccccc1Oc1ccc(N2CC[C@H](Nc3ncccc3Cl)C2)c(CO)c1 [Compound 1-380] .
Key: 25.6

Exercise: Name the recorded IC50 for NC(=O)c1cc(-c2ccccc2)ccc1N1CC[C@H](Oc2ccc3cc(Cl)ccc3n2)C1 [Compound 1-67] .
Key: 1270
